Where these numbers come from: patent US20240366587A1

Assay: Clinical studies: bioavailability and half-life of Compound A
Format: in vivo
Conditions: human, plasma, oral, read-out: estimated bioavailability
MEASURED ENDPOINT: bioavailability

Enquiry: Which bioavailability value is on record for N#Cc1cccc(-c2ccc3ncc(-c4cc(F)cc(F)c4)c(N4CCC(N)CC4)c3c2)c1O [Compound A] ?
Return: ~70%
